measuredTarget: T1, hAMY3R (human, UniProt P30988)
T1 sequence 1: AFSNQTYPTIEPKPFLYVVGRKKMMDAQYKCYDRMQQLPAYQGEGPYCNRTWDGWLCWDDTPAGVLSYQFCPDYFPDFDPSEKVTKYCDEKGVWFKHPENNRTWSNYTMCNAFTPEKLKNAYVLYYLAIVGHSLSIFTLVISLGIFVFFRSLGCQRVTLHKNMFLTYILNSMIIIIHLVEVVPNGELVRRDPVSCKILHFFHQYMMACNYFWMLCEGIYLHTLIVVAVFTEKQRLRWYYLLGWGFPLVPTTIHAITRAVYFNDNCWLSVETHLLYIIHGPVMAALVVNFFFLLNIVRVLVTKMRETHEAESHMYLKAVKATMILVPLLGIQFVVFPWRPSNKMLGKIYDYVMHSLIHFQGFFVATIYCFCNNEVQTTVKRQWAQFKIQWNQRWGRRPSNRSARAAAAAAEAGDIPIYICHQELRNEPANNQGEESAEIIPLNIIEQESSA
T1 sequence 2: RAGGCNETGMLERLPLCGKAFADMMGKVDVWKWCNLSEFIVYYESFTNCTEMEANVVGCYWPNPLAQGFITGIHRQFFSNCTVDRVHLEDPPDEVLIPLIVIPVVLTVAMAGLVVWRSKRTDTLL
assaySummary: cell-based or functional assay
Numbered stars: 1 amine (or outer) side, 2 acyl side, 3 side chain; on linkers, the order of the positions; unused ones are H or OH. Bridge positions count the residues as written; N and C are the ends. Square brackets hold non-standard residues; d marks the D form. Ends that are not written are not given here. * marks the point of attachment. C20 diacid = O=C(O)CCCCCCCCCCCCCCCCCCC(=O)*; γGlu = O=C(O)[C@H](CCC(=O)[*:2])N[*:1]; Hyp = O=C(O)[C@@H]1C[C@@H](O)CN1
metric: hAMY3R EC50 (cAMP) (nM)
Return type: number; implicit unit nM.

Before answering, review these 3 worked examples.
binder | readoutUnit | hAMY3R EC50 (cAMP)
GCRTGTCTVQRLAHQIYQFTDKFKDNVAPRSKISPQY[Hyp]-NH2 (disulfide 2-7 (inferred); ends not checked) [SEQ ID NO: 186] | nM | 0.091
GCRTGTCTVQRLAHQIYQFTDKFKDNVAPRSKISPQTM [SEQ ID NO: 215] | nM | 0.161
{C20 diacid-γGlu}-KCNTATCTVNRLAHQIYQFTDKDKDNVAPPTNVGSNG[Hyp]-NH2 (disulfide 2-7 (inferred); ends not checked) [SEQ ID NO: 38] | nM | 0.01

Record summary for KCNTATCTVQRLAHQIYQFTDKDKDNVAPATNVGSNG[Hyp]-NH2 (disulfide 2-7 (inferred); ends not checked) [SEQ ID NO: 28] : reported hAMY3R EC50 (cAMP) = 0.008

Record summary for GCRTGTCTVQWLAHQIYQFTDKDKDNVAPRSKVGPQGY [SEQ ID NO: 344] : reported hAMY3R EC50 (cAMP) = 0.121

Record summary for {C20 diacid-γGlu}-KCNFATCTVQRLAHQIYQFTDKDKDNVAPRTEVGSNG[Hyp]-NH2 (disulfide 2-7 (inferred); not fully specified; ends not checked) [SEQ ID NO: 67] : reported hAMY3R EC50 (cAMP) = 0.013

Record summary for {C20 diacid-γGlu}-KCNTATCTVQRLAHQIYQFADKDKDNVAPPTNVGSNG[Hyp]-NH2 (disulfide 2-7 (inferred); not fully specified; ends not checked) [SEQ ID NO: 83] : reported hAMY3R EC50 (cAMP) = 0.015

Record summary for {C20 diacid-γGlu}-KCNTATCTVQRLAEQIYQFTDKDKDNVAPPTAVGSNG[Hyp]-NH2 (disulfide 2-7 (inferred); not fully specified; ends not checked) [SEQ ID NO: 63] : reported hAMY3R EC50 (cAMP) = 0.012

Record summary for GCRTGTCTVQWLAHQIYQFTDKDKDNVAPRTNVGPQG[Hyp]-NH2 (disulfide 2-7 (inferred); ends not checked) [SEQ ID NO: 323] : reported hAMY3R EC50 (cAMP) = 0.014

All figures here come from patent US12139520B2.
